B1: GA-binding protein alpha chain, residues 172 to 250; numbered along this chain, Q06546 (parent)
chain: GYRKEQERLGIPYDPIQWSTDQVLHWVVWVMKEFSMTDIDLTTLNISGRELCSLNQEDFFQRVPRGEILWSHLELLRKY

Variants of: B1
Assay: abundance fitness (aPCA) (normalised: wild type 0, dead -1); higher = more abundant; growth selection in yeast, the domain comes from the species named
Settings: Homo sapiens
RESULT_TYPE: abundance fitness

{"MUTATION_KEY": "K4T", "MEASURED_RESULT": -0.067}
{"MUTATION_KEY": "E67D", "MEASURED_RESULT": -0.133}
{"MUTATION_KEY": "V63C", "MEASURED_RESULT": -0.012}
{"MUTATION_KEY": "E33M", "MEASURED_RESULT": -0.337}
{"MUTATION_KEY": "G48K", "MEASURED_RESULT": -0.951}
{"MUTATION_KEY": "N45T", "MEASURED_RESULT": -0.01}
{"MUTATION_KEY": "D21P", "MEASURED_RESULT": -0.089}
{"MUTATION_KEY": "F60T", "MEASURED_RESULT": -0.044}
{"MUTATION_KEY": "Q22R", "MEASURED_RESULT": -0.998}
{"MUTATION_KEY": "W18A", "MEASURED_RESULT": -0.862}
{"MUTATION_KEY": "S19Y", "MEASURED_RESULT": -0.65}
{"MUTATION_KEY": "L51P", "MEASURED_RESULT": -0.746}
{"MUTATION_KEY": "P64D", "MEASURED_RESULT": -0.738}
{"MUTATION_KEY": "H25S", "MEASURED_RESULT": -0.27}
{"MUTATION_KEY": "Q61I", "MEASURED_RESULT": -0.178}
{"MUTATION_KEY": "N45W", "MEASURED_RESULT": -0.276}
{"MUTATION_KEY": "V30Q", "MEASURED_RESULT": -0.345}
{"MUTATION_KEY": "D58W", "MEASURED_RESULT": -0.19}
{"MUTATION_KEY": "S47V", "MEASURED_RESULT": -0.418}
{"MUTATION_KEY": "S53M", "MEASURED_RESULT": -0.121}
{"MUTATION_KEY": "E50Q", "MEASURED_RESULT": 0.013}
{"MUTATION_KEY": "W18D", "MEASURED_RESULT": -1.05}
{"MUTATION_KEY": "Q61M", "MEASURED_RESULT": -0.022}
{"MUTATION_KEY": "Q22T", "MEASURED_RESULT": -0.875}
{"MUTATION_KEY": "D38R", "MEASURED_RESULT": -0.168}
{"MUTATION_KEY": "S19V", "MEASURED_RESULT": -0.996}
{"MUTATION_KEY": "W29C", "MEASURED_RESULT": -0.663}
{"MUTATION_KEY": "D14G", "MEASURED_RESULT": -0.805}
{"MUTATION_KEY": "S19L", "MEASURED_RESULT": -0.864}
{"MUTATION_KEY": "N55L", "MEASURED_RESULT": -0.252}
{"MUTATION_KEY": "W70E", "MEASURED_RESULT": -0.801}
{"MUTATION_KEY": "T37M", "MEASURED_RESULT": -0.028}
{"MUTATION_KEY": "I39V", "MEASURED_RESULT": 0.037}
{"MUTATION_KEY": "I11E", "MEASURED_RESULT": -0.924}
{"MUTATION_KEY": "L51H", "MEASURED_RESULT": -0.928}
{"MUTATION_KEY": "S35T", "MEASURED_RESULT": -0.013}
{"MUTATION_KEY": "E7F", "MEASURED_RESULT": -0.252}
{"MUTATION_KEY": "G48P", "MEASURED_RESULT": -0.633}
{"MUTATION_KEY": "L51V", "MEASURED_RESULT": -0.652}
{"MUTATION_KEY": "E50M", "MEASURED_RESULT": -0.24}
{"MUTATION_KEY": "Y79R", "MEASURED_RESULT": -0.054}
{"MUTATION_KEY": "S35G", "MEASURED_RESULT": 0.018}
{"MUTATION_KEY": "Y79T", "MEASURED_RESULT": -0.148}
{"MUTATION_KEY": "S71A", "MEASURED_RESULT": -0.046}
{"MUTATION_KEY": "L76T", "MEASURED_RESULT": -0.29}
{"MUTATION_KEY": "D14F", "MEASURED_RESULT": -1.01}
{"MUTATION_KEY": "E7A", "MEASURED_RESULT": -0.071}
{"MUTATION_KEY": "E7M", "MEASURED_RESULT": -0.098}
{"MUTATION_KEY": "L69G", "MEASURED_RESULT": -1.04}
{"MUTATION_KEY": "R49S", "MEASURED_RESULT": -0.006}
{"MUTATION_KEY": "E67P", "MEASURED_RESULT": -0.239}
{"MUTATION_KEY": "L54Y", "MEASURED_RESULT": -0.273}
{"MUTATION_KEY": "R65F", "MEASURED_RESULT": -0.177}
{"MUTATION_KEY": "G48Q", "MEASURED_RESULT": -1.02}
{"MUTATION_KEY": "N55K", "MEASURED_RESULT": -0.189}
{"MUTATION_KEY": "L41H", "MEASURED_RESULT": -0.063}
{"MUTATION_KEY": "Q61C", "MEASURED_RESULT": -0.091}
{"MUTATION_KEY": "R3Y", "MEASURED_RESULT": -0.19}
{"MUTATION_KEY": "S35L", "MEASURED_RESULT": -0.204}
{"MUTATION_KEY": "R8C", "MEASURED_RESULT": -0.355}
{"MUTATION_KEY": "N55E", "MEASURED_RESULT": -0.037}
{"MUTATION_KEY": "E74Q", "MEASURED_RESULT": -0.075}
{"MUTATION_KEY": "T43A", "MEASURED_RESULT": 0}
{"MUTATION_KEY": "T42Y", "MEASURED_RESULT": -0.1}
{"MUTATION_KEY": "R62Q", "MEASURED_RESULT": -0.106}
{"MUTATION_KEY": "W26Y", "MEASURED_RESULT": -0.514}
{"MUTATION_KEY": "E74C", "MEASURED_RESULT": -0.138}
{"MUTATION_KEY": "Q61Y", "MEASURED_RESULT": -0.203}
{"MUTATION_KEY": "E33F", "MEASURED_RESULT": -0.375}
{"MUTATION_KEY": "V23F", "MEASURED_RESULT": -0.89}
{"MUTATION_KEY": "K32T", "MEASURED_RESULT": -0.01}
{"MUTATION_KEY": "I46V", "MEASURED_RESULT": -0.109}
{"MUTATION_KEY": "F34H", "MEASURED_RESULT": 0.077}
{"MUTATION_KEY": "K78H", "MEASURED_RESULT": -0.015}
{"MUTATION_KEY": "L73G", "MEASURED_RESULT": -0.937}
{"MUTATION_KEY": "I16L", "MEASURED_RESULT": -0.012}
{"MUTATION_KEY": "V27Y", "MEASURED_RESULT": -0.197}
{"MUTATION_KEY": "L44Q", "MEASURED_RESULT": -1.09}
{"MUTATION_KEY": "W70S", "MEASURED_RESULT": -0.913}
{"MUTATION_KEY": "I16P", "MEASURED_RESULT": -0.458}
{"MUTATION_KEY": "S71Q", "MEASURED_RESULT": 0.01}
{"MUTATION_KEY": "E5M", "MEASURED_RESULT": -0.281}
{"MUTATION_KEY": "V30W", "MEASURED_RESULT": -0.339}
{"MUTATION_KEY": "R8H", "MEASURED_RESULT": -0.21}
{"MUTATION_KEY": "M31I", "MEASURED_RESULT": -0.031}
{"MUTATION_KEY": "I68V", "MEASURED_RESULT": -0.021}
{"MUTATION_KEY": "W26R", "MEASURED_RESULT": -0.855}
{"MUTATION_KEY": "E67L", "MEASURED_RESULT": -0.249}
{"MUTATION_KEY": "Q22C", "MEASURED_RESULT": -0.543}
{"MUTATION_KEY": "N55F", "MEASURED_RESULT": -0.712}
{"MUTATION_KEY": "E57A", "MEASURED_RESULT": 0.011}
